This section presents molecules with their documented thermal shift delta Tm values.
- System: LOC_OS01G48390-cb002;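 also: purified Escherichia coli-expressed rice kinase domain construct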
- protocol-text: thermal shift delta Tm vs DMSO control; higher = stronger stabilization (binding)
- measurement-conditions: 12.5 µM; protein concentration 2 µM
# unit: °C | format: bare number

{"smiles-data": "CN(C)C/C=C/C(=O)Nc1cc2c(Nc3ccc(F)c(Cl)c3)ncnc2cc1O[C@H]1CCOC1", "reported-endpoint": "thermal shift delta Tm", "observed-result": 2.17}
{"smiles-data": "Cc1cc(Nc2cc(N3CCN(C)CC3)nc(/C=C/c3ccccc3)n2)n[nH]1", "reported-endpoint": "thermal shift delta Tm", "observed-result": 2.45}
{"smiles-data": "C[C@H]1[C@H](C)CC[C@]2(C(=O)O)CC[C@]3(C)C(=CC[C@@H]4[C@@]5(C)C[C@@H](O)[C@H](O)[C@@](C)(CO)[C@@H]5CC[C@]43C)[C@H]12", "reported-endpoint": "thermal shift delta Tm", "observed-result": 0.45}
{"smiles-data": "O=C1Nc2ccc(I)cc2/C1=C/c1cc(Br)c(O)c(Br)c1", "reported-endpoint": "thermal shift delta Tm", "observed-result": 2.41}
{"smiles-data": "COc1cc2ncnc(Nc3cccc(Cl)c3F)c2cc1OC(=O)N1CCN(C)C[C@H]1C", "reported-endpoint": "thermal shift delta Tm", "observed-result": 0.45}
{"smiles-data": "CCNC(=O)Nc1ccc(-c2nc3c(c(N4CCOC[C@@H]4C)n2)CCN(C2COC2)C3)cc1", "reported-endpoint": "thermal shift delta Tm", "observed-result": 0.42}
{"smiles-data": "Cc1cc(CN2CCN(c3c(Br)cnc4nc(-c5ccc(N6CCN(C)CC6)cc5)[nH]c34)CC2)no1", "reported-endpoint": "thermal shift delta Tm", "observed-result": 3.13}

Next molecule, thermal shift delta Tm to be filled in.
Query :: Write down thermal shift delta Tm measured for item C=CC(=O)Nc1ccc2ncnc(Nc3cccc(Br)c3)c2c1
Result :: 0.59
